From: the NIST ThermoML archive (doi:10.1016/j.jct.2015.12.021)

condition-label: 353.15 K; 80000 kPa; Liquid; Vibrating wire viscometry
List of viscosity values.
# value in mPa·s; strip the unit string

| input-smiles | viscosity / mPa·s |
| --- | --- |
| CC(C)CC(C)(C)C | 0.6288 |

Identify measured viscosity associated with `Cc1ccc(C)c(C)c1`
0.7606

For the molecule `CCCCCCCCCCCC` , give its measured viscosity value.
1.312

Look up and state reported viscosity for `CCCCCCC`
0.457

Provide one value: measured viscosity of `Cc1ccccc1`
0.5478

###

condition-label: 333.15 K; 80000 kPa; Liquid; Vibrating wire viscometry
Returns satisfied if the recorded viscosity is greater than or equal to 0.7 mPa·s, and not satisfied otherwise.

Has `CCCCCCCCCCCC` a recorded viscosity greater than or equal to 0.7 mPa·s?
satisfied

Item `Cc1ccc(C)c(C)c1` with viscosity of 0.7 mPa·s or above?
satisfied

Say whether `CCCCCCC` shows viscosity of 0.7 mPa·s or more.
not satisfied

Determine whether measured viscosity meets or exceeds 0.7 mPa·s for `Cc1ccccc1`
not satisfied

// inclusive: viscosity at least 0.7 mPa·s? input: `CC(C)CC(C)(C)C`
satisfied

###

condition-label: 313.15 K; 20000 kPa; Liquid; Vibrating wire viscometry
viscosity vs 0.5 mPa·s: less than gives MET; not less than gives NOT MET.

Example entries begin here.
| molecule | classification |
| --- | --- |
| CC(C)CC(C)(C)C [2,2,4-trimethylpentane] | NOT MET |
| Cc1ccc(C)c(C)c1 [1,2,4-trimethylbenzene] | NOT MET |
| CCCCCCC [heptane] | MET |
| Cc1ccccc1 [toluene] | NOT MET |

Field: next molecule
Please indicate whether the reported viscosity of CCCCCCCCCCCC [dodecane] is strictly below 0.5 mPa·s.
NOT MET

###

condition-label: 313.15 K; 70000 kPa; Liquid; Vibrating wire viscometry
Friendly reminder: viscosity below 1 mPa·s is criterion met, at or above is criterion not met.

For orientation, consider the following solved cases.
| input-smiles | classification |
| --- | --- |
| Cc1ccc(C)c(C)c1 | criterion not met |
| CCCCCCC | criterion met |
| CC(C)CC(C)(C)C | criterion met |

Determine whether this compound shows viscosity lower than 1 mPa·s (ties excluded): `Cc1ccccc1`
criterion met

Record `CCCCCCCCCCCC` : is its viscosity strictly below 1 mPa·s?
criterion not met

###

condition-label: 293.15 K; 70000 kPa; Liquid; Vibrating wire viscometry
If the reported viscosity equals or exceeds 1 mPa·s, assign t. If not, assign f.

| input-smiles | classification |
| --- | --- |
| Cc1ccccc1 | f |
| CCCCCCCCCCCC | t |
| CC(C)CC(C)(C)C | t |

Has `Cc1ccc(C)c(C)c1` a recorded viscosity greater than or equal to 1 mPa·s?
t

Reported viscosity reaches at least 1 mPa·s for `CCCCCCC` ?
f

###

condition-label: 333.15 K; 70000 kPa; Liquid; Vibrating wire viscometry
readout-label: viscosity (mPa·s)
Numeric only. Scale: mPa·s

| input-smiles | viscosity (mPa·s) |
| --- | --- |
| CCCCCCC | 0.5022 |
| Cc1ccc(C)c(C)c1 | 0.9004 |

Let's switch to this compound now.
Read off the recorded viscosity for `CCCCCCCCCCCC`
1.576
